# System: 313798-341-R-J2-PDC spheroids, viability
# test-summary: Anticancer human tumor 313798-341-R-J2-PDC patient-derived cervical squamous cell carcinoma cell line growth inhibition [PI3K]
# measurement-parameters: second compound 0.316 µM; first compound 0.000316 µM; hits give low values; spheroids with HUVEC and MSC
result-type: viability, T/C (%)

compound	result-type	observed-measurement
CC(C)n1nc(-c2ccc3oc(N)nc3c2)c2c(N)ncnc21 + COc1c(OCCCN2CCOCC2)ccc2c3n(c(=NC(=O)c4cnc(N)nc4)nc12)CCN3	viability, T/C	17.7
CC(C)n1nc(-c2ccc3oc(N)nc3c2)c2c(N)ncnc21 + CC(Nc1ncnc2nc[nH]c12)c1cc2cccc(Cl)c2c(=O)n1-c1ccccc1	viability, T/C	101
CC(=O)c1c(C)c2cnc(Nc3ccc(N4CCNCC4)cn3)nc2n(C2CCCC2)c1=O + Cc1nc(NC(=O)N2CCCC2C(N)=O)sc1-c1ccnc(C(C)(C)C(F)(F)F)c1	viability, T/C	110
Cn1ncnc1[C@H]1c2n[nH]c(=O)c3cc(F)cc(c23)N[C@@H]1c1ccc(F)cc1 + COc1c(OCCCN2CCOCC2)ccc2c3n(c(=NC(=O)c4cnc(N)nc4)nc12)CCN3	viability, T/C	17.3
CC(=O)c1c(C)c2cnc(Nc3ccc(N4CCNCC4)cn3)nc2n(C2CCCC2)c1=O + CC(Nc1ncnc2nc[nH]c12)c1cc2cccc(Cl)c2c(=O)n1-c1ccccc1	viability, T/C	99.6
Cn1ncnc1[C@H]1c2n[nH]c(=O)c3cc(F)cc(c23)N[C@@H]1c1ccc(F)cc1 + Cc1nc(NC(=O)N2CCCC2C(N)=O)sc1-c1ccnc(C(C)(C)C(F)(F)F)c1	viability, T/C	97.7
Cn1ncnc1[C@H]1c2n[nH]c(=O)c3cc(F)cc(c23)N[C@@H]1c1ccc(F)cc1 + CC(Nc1ncnc2nc[nH]c12)c1cc2cccc(Cl)c2c(=O)n1-c1ccccc1	viability, T/C	92.6
CC(=O)c1c(C)c2cnc(Nc3ccc(N4CCNCC4)cn3)nc2n(C2CCCC2)c1=O + CC(Nc1ccc2c(c1)OCCn1cc(N3C(=O)OCC3C(F)F)nc1-2)C(N)=O	viability, T/C	82.8

---

# System: 313798-341-R-J2-PDC spheroids, viability
# test-summary: Anticancer human tumor 313798-341-R-J2-PDC cell line growth inhibition [PI3K];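 also: spheroids exposed to compounds for seven days; 100% = DMSO vehicle control viability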
# measurement-parameters: second compound 0.316 µM; first compound 1 µM; hits give low values; spheroids with HUVEC and MSC
# if measured viability, T/C < 70%: MET  # else: NOT MET

molecule	target	class-name
CCN1CCN(Cc2ccc(Nc3ncc(F)c(-c4cc(F)c5nc(C)n(C(C)C)c5c4)n3)nc2)CC1 + Cc1nc(NC(=O)N2CCCC2C(N)=O)sc1-c1ccnc(C(C)(C)C(F)(F)F)c1	313798-341-R-J2-PDC spheroids, viability	NOT MET
C[C@@H](NC(=O)c1ncnc(N)c1Cl)c1ncc(C(=O)Nc2cc(C(F)(F)F)c(Cl)cn2)s1 + CC(Nc1ccc2c(c1)OCCn1cc(N3C(=O)OCC3C(F)F)nc1-2)C(N)=O	313798-341-R-J2-PDC spheroids, viability	MET
C[C@@H](NC(=O)c1ncnc(N)c1Cl)c1ncc(C(=O)Nc2cc(C(F)(F)F)c(Cl)cn2)s1 + COc1c(OCCCN2CCOCC2)ccc2c3n(c(=NC(=O)c4cnc(N)nc4)nc12)CCN3	313798-341-R-J2-PDC spheroids, viability	MET
CCCS(=O)(=O)Nc1ccc(F)c(C(=O)c2c[nH]c3ncc(-c4ccc(Cl)cc4)cc23)c1F + Cc1nc(NC(=O)N2CCCC2C(N)=O)sc1-c1ccnc(C(C)(C)C(F)(F)F)c1	313798-341-R-J2-PDC spheroids, viability	NOT MET
CC(Cn1ccc(-c2ccc(C#N)c(Cl)c2)n1)NC(=O)c1cc(C(C)O)[nH]n1 (stereo not drawn) + CC(Nc1ccc2c(c1)OCCn1cc(N3C(=O)OCC3C(F)F)nc1-2)C(N)=O	313798-341-R-J2-PDC spheroids, viability	NOT MET
Cn1ncc(Cl)c1-c1cc(C(=O)NC(CN)Cc2cccc(F)c2)sc1Cl (stereo not drawn) + Cc1nc(NC(=O)N2CCCC2C(N)=O)sc1-c1ccnc(C(C)(C)C(F)(F)F)c1	313798-341-R-J2-PDC spheroids, viability	MET
CC1(C)CCC(CN2CCN(c3ccc(C(=O)NS(=O)(=O)c4ccc(NCC5CCOCC5)c([N+](=O)[O-])c4)c(Oc4cnc5[nH]ccc5c4)c3)CC2)=C(c2ccc(Cl)cc2)C1 + CC(Nc1ncnc2nc[nH]c12)c1cc2cccc(Cl)c2c(=O)n1-c1ccccc1	313798-341-R-J2-PDC spheroids, viability	NOT MET
Cn1ncc(Cl)c1-c1cc(C(=O)NC(CN)Cc2cccc(F)c2)sc1Cl (stereo not drawn) + COc1c(OCCCN2CCOCC2)ccc2c3n(c(=NC(=O)c4cnc(N)nc4)nc12)CCN3	313798-341-R-J2-PDC spheroids, viability	MET
